# Tested system: T1, human IFN-gamma (human, UniProt P01579 24-166)
# T1 construct: The cell-based assays used IFN-γ 'expressed in CHO'; also called human IFN-γ; Interferon gamma
# T1 sequence (looked up): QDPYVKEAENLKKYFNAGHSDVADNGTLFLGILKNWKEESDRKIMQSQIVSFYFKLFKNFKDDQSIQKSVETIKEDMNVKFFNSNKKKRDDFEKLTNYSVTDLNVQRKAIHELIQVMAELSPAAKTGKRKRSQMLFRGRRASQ
# Run description: competition ELISA: VHH pre-incubated with biotinylated human IFN-γ, coated human IFN-γ receptor
Consider the following binders; for each one, report its IC50.
Numbers only, in µg/mL.

Before answering, review these 5 worked examples.
Binder	IC50 [µg/mL]
MP3D2BR (VHH) VHH: QVQLQESGGGLVQPGESLRLSCAASRGIFRFNAGGWYRQAPGKQRELVAFIGVDNTTRYIDSVKGRFTISRDNAKTTVYLQMNSLQPEDTAVYYCNKVPYIDWGQGTQVTVSS	4
MP3F1SRA (VHH) VHH: QVQLQESGGGLVQAGGSLTLSCVASGRTISDYAVGWFRQAPGKEREFVASISWGGGFTAFADSMKGRFTISRDNAKNTVYLQTHTLEPDDTSVYYCASSRRYCTGYRCYATASEFDSWGQGTQVTVSS	8
MP3B1SRA (VHH) VHH: QVQLQESGGGLVQPGGSLRLSCAASGFTSSNYAMSWVRQAPGKGLEWVSSINSRTGSITYADSVKGRFTITLDNAKNTLYLQMNSLKPEDTAVYYCASRVDDRVSRGQGTQVTVSS	20
MP3A7SRA (VHH) VHH: QVQLQDSGGGLVQAGGSLRLSCAASGRTFSSFRMGWFRRAPGEEREFVAFVRSNGTSTYYADSVEGRFTITRDNAKNTVYLRMDSLKPEDTAVYYCAAATRDYGGSFDYWGQGTQVIVSS	5
MP2F1BR (VHH) VHH: AVQLVESGGGLVQTGDSLRLSCVASGGTFSRYAMGWFRQAPGKEREFVARIGYSGRSISYATSVEGRFAISRDNAKNTVYLQMNSLKPEDTAVYYCASLVSGTLYQADYWGQGTQVTVSS	8

(Q) Tell us which IC50 value is on record for MP2F6SR (VHH) VHH: QVKLEESGGGLVQAGGSLRLSCAASGRTFNNYNMGWFRQAPGKEREFVAAISWNGGSTYYDDSVKGRFTISRDNANNLVYLQMNSLNFEDTAVYYCACAANPYGIPQYRENRYDFWGQGTQVTVSS
(A) 1.75
